- EXPERIMENTAL_PROTOCOL: qHTS for Inhibitors of the Functional Ribonucleoprotein Complex (vRNP) of Lassa (LASV) Arenavirus: Viability assay - alamar blue signal for LASV Primary Screen (AID 1347083); note: nearly all actives have a fitted effect of over 80% in size
- CONDITION_CONTEXT: cell viability, alamar blue fluorescence (LASV minigenome counter-screen); series mostly up to 57.5 µM
Inconclusive results are not listed. The source made the active and inactive calls. Calls come from the whole dose curve; tested in HEK293 reporter line.
Mark one answer only. Choices: y for active, n for inactive

Record request — test call for C=C(C)[C@@H]1CC[C@]2(C(=O)O)CC[C@]3(C)C(CCC4[C@@]5(C)CC[C@H](O)C(C)(C)C5CC[C@]43C)C12 (stereo not given in full)
n

Record request — test call for `C=C1C[C@@]23CC[C@H]4[C@@](C)(CCC[C@@]4(C)C(=O)O)[C@@H]2CC[C@]1(O)C3`
n

Record request — test call for `C[C@]12CCC(=O)C=C1CC[C@@H]1[C@H]2[C@@H](O)C[C@@]2(C)[C@H]1CC[C@]2(O)C(=O)CO`
n

Record request — test call for NCC(O)c1ccc(O)c(O)c1 (stereo not given)
n

Record request — test call for CCCCCCCCC1OC1CCCCCCCC(=O)O (stereo not given)
n

Record request — test call for CN1CCc2cccc3c2C1Cc1ccc(O)c(O)c1-3 (stereo not given)
n

Record request — test call for CC1OC(Oc2ccc3ccc(=O)oc3c2-c2c(O)ccc3cc(Oc4ccc5ccc(=O)oc5c4)c(=O)oc23)C(O)C(O)C1O (stereo not given)
n

Record request — test call for CC12C=CC(=O)C=C1CCC1C2CCC2(C)C(C(=O)CO)CCC12 (stereo not given)
n

Record request — test call for `Cc1cc2c(c(C)c1CCO)C(=O)[C@H](C)C2`
n

Record request — test call for `COc1cc(CCC(C)=O)ccc1O`
n

Record request — test call for COc1cc(C(O)CO)ccc1O (stereo not given)
n

Record request — test call for `CCCOc1ccc2[nH]cc(C3=CCNCC3)c2n1`
n

Record request — test call for `CC(=O)OCC=C(C)C`
n

Record request — test call for `COC(=O)CCCC(=O)OC`
n

Record request — test call for `C=CC1=C(C(=O)O)N2C(=O)[C@@H](NC(=O)C(=NO)c3csc(N)n3)[C@H]2SC1`
n

Record request — test call for `N[C@@H](CCCC(=O)O)C(=O)O`
n

Record request — test call for `CC(=O)c1ccc(-c2cccs2)s1`
n

Record request — test call for `CCCCC/C=C/CC(=O)OC`
n

Record request — test call for `COc1cc2cc(Oc3ccc4ccc(=O)oc4c3)c(=O)oc2cc1O[C@@H]1O[C@H](CO)[C@@H](O)[C@H](O)[C@H]1O`
n

Record request — test call for COc1ccc2c3c([nH]c2c1)C(C)NCC3 (stereo not given)
n

Record request — test call for `C/C=C\C/C=C/CCCCCCCCOC(C)=O`
n

Record request — test call for `CNC(=O)c1ccc(C)c(-n2c(C)cc(OCc3ccc(F)cc3F)c(Br)c2=O)c1`
n

Record request — test call for `O=C1c2ccccc2-n2c1nc1ccccc1c2=O`
n

Record request — test call for `O=C1C[C@@H](c2ccc(O)cc2)Oc2cc(O)cc(O)c21`
n

Record request — test call for `C[C@@H]1CCO[C@H]2Cn3cc(C(=O)NCc4ccc(F)cc4F)c(=O)c(O)c3C(=O)N12`
n

Record request — test call for Nc1nc2c(nc(Br)n2C2OC3COP(=O)(O)O[C@@H]3C2O)c(=O)[nH]1 (stereo not given in full)
n

Record request — test call for `C/C=C(/C)C(=O)O[C@@H]1[C@H](OC(=O)C=C(C)C)c2c(ccc3ccc(=O)oc23)OC1(C)C`
n

Record request — test call for `CCC[C@@H](NC(=O)[C@@H]1[C@H]2CCC[C@@H]2CN1C(=O)[C@@H](NC(=O)[C@@H](NC(=O)c1cnccn1)C1CCCCC1)C(C)(C)C)C(=O)C(=O)NC1CC1`
n

Record request — test call for C=C[C@@H]1CN2CCC1C[C@@H]2C(O)c1ccnc2ccc(OC)cc12 (stereo not given in full)
n

Record request — test call for `CC(C)(COP(=O)(O)OP(=O)(O)OC[C@H]1O[C@@H](n2cnc3c(N)ncnc32)[C@H](O)[C@@H]1OP(=O)(O)O)[C@H](O)C(=O)NCCC(=O)NCCS`
n

Record request — test call for C[C@H]1CC[C@@H]2[C@@H](C)[C@H]3C(C[C@H]4C5CC[C@H]6C[C@@H](O)CC[C@]6(C)C5CC[C@]34C)N2C1 (stereo not given in full)
n

Record request — test call for `O=c1ccn([C@@H]2O[C@H](COP(=O)(O)OP(=O)(O)O)[C@@H](O)[C@H]2O)c(=O)[nH]1`
n

Record request — test call for `CC[C@]1(O)C[C@H]2CN(CCC3=c4ccccc4=N[C]3[C@@](C(=O)OC)(c3cc4c(cc3OC)N(C)[C@H]3[C@@](O)(C(N)=O)[C@H](O)[C@]5(CC)C=CCN6CC[C@]43[C@@H]65)C2)C1`
y

Record request — test call for CCNc1cc(NC2CCC(O)CC2)nc(Nc2ccc3c(ccn3Cc3ccccc3)c2)n1 (stereo not given)
n

Record request — test call for `CCOC(=O)c1c(C)nc(C)c(C(=O)OCC)c1-c1ccccc1`
n

Record request — test call for `Cc1ccc2oc3ccccc3c(=O)c2c1`
n

Record request — test call for `Cn1c(-c2ccccc2)cc(=O)c2ccccc21`
n

Record request — test call for `COc1cc2c(c(OC)c1OC)-c1c(cc(OC)c(OC)c1OC)C[C@](C)(O)[C@@H](C)C2`
n

Record request — test call for `Cc1ccc(NC(=O)Nc2cc(C(F)(F)F)ccc2F)cc1Nc1ccc2c(c1)NC(=O)C2=Cc1ccc[nH]1`
y

Record request — test call for `C/C(=N/N=C(\C)c1ccccc1O)c1ccccc1O`
n

Reference source for all entries: PubChem BioAssay (NCATS)
